Target: T1, human EphB4-His (human) (UniProt P54760)
T1 sequence (looked up): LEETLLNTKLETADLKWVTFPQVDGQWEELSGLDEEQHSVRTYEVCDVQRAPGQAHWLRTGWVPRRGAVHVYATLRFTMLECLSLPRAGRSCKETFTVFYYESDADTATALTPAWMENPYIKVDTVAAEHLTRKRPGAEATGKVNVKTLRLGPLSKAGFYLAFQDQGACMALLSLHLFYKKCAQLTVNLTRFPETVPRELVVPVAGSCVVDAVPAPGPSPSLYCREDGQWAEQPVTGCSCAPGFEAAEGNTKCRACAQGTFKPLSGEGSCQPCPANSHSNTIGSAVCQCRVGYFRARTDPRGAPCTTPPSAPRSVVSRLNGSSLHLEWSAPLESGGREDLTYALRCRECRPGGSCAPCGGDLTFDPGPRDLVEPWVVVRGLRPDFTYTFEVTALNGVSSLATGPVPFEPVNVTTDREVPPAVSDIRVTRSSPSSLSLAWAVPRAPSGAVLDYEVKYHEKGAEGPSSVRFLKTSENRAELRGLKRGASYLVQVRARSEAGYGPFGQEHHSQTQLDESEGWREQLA
Test: SPR, BIAcore-3000, antibody coupled to CM5 chip, EphB4-His injected, 25 C
pKd: −log10 of the molar value.
MEASUREMENT LABEL: pKd

>  <BINDER>
anti-EphB4 antibody clone YW30.35.1D2 (antibody, V domains shown) VH: EVQLVESGGGLVQPGGSLRLSCAASGFTISGYYIHWVRQAPGKGLEWVGGIYPYSGSTDYADSVKGRFTISADTSKNTAYLQMNSLRAEDTAVYYCARSSGLRLGGLDYAMDYWGQGTLVTVSS VL: DIQMTQSPSSLSASVGDRVTITCRASQDSEIFLAWYQQKPGKAPKLLIYSASNLESGVPSRFSGSGSGTDFTLTISSLQPEDFATYYCQQSNAVPLTFGQGTKVEIK

>  <pKd>
> 9.85

$$$$
>  <BINDER>
anti-EphB4 antibody clone 30.35.2D13 (antibody, V domains shown) VH: EVQLVESGGGLVQPGGSLRLSCAASGFTISGYYIHWVRQAPGKGLEWVGGIYLYSGSTDYADSVKGRFTISADTSKNTAYLQMNSLRAEDTAVYYCARGSGLRLGGLDYAMDYWGQGTLVTVSS VL: DIQMTQSPSSLSASVGDRVTITCRASQDVSTAVAWYQQKPGKAPKLLIYSASFLYSGVPSRFSGSGSGTDFTLTISSLQPEDFATYYCQQTAQTPETFGQGTKVEIK

>  <pKd>
> 9.96

$$$$

In: Reported pKd for anti-EphB4 antibody clone YW30.35.2D12 (antibody, V domains shown) VH: EVQLVESGGGLVQPGGSLRLSCAASGFTISGYYIHWVRQAPGKGLEWVGGIYLYSGSRGYADSVKGRFTISADTSKNTAYLQMNSLRAEDTAVYYCARGSGLRLGGLDYAMDYWGQGTLVTVSS VL: DIQMTQSPSSLSASVGDRVTITCRASQDVSTAVAWYQQKPGKAPKLLIYSASFLYSGVPSRFSGSGSGTDFTLTISSLQPEDFATYYCQKSETIPPSFGQGTKVEIK : what is it?
Out: > 9.72

In: Field request: pKd | item: anti-EphB4 antibody clone YW30.35 (antibody, V domains shown) VH: EVQLVESGGGLVQPGGSLRLSCAASGFTISGYYIHWVRQAPGKGLEWVGGIYPYSGSTDYADSVKGRFTISADTSKNTAYLQMNSLRAEDTAVYYCARGSGLRLGGLDYAMDYWGQGTLVTVSS VL: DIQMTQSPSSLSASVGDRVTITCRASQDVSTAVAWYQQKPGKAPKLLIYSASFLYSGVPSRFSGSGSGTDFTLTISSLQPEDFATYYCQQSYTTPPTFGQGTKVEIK
Out: 7.49

In: Recorded pKd of anti-EphB4 antibody clone YW30.35.2D8 (antibody, V domains shown) VH: EVQLVESGGGLVQPGGSLRLSCAASGFSISNYYLHWVRQAPGKGLEWVGGIYLYGSSSEYADSVKGRFTISADTSKNTAYLQMNSLRAEDTAVYYCARGSGLRLGGLDYAMDYWGQGTLVTVSS VL: DIQMTQSPSSLSASVGDRVTITCRASQDVSTAVAWYQQKPGKAPKLLIYSASFLYSGVPSRFSGSGSGTDFTLTISSLQPEDFATYYCQESTTTPPTFGQGTKVEIK , please.
Out: > 9.92
